- assay_text: In Vitro Microsome Stability Assay (rat)
- Assay type: in vitro ADME
- measurement_conditions: rat liver microsomes, 30 min w/ NADPH
property_measured: Liver Microsome Stability-% Left after 30 min w/ NADPH (%) Rat
Dear colleague, please return just the value in %, with no unit written.

# input Give the measured Liver Microsome Stability-% Left after 30 min w/ NADPH (%) Rat of C[C@@H]1CCN(S(=O)(=O)N2CCc3cc(Cl)ccc3C2)CCCN(CC2CCCCC2)CCCN1S(=O)(=O)c1ccc(N(C)C)cc1 .
# output 0.47

# input Give the measured Liver Microsome Stability-% Left after 30 min w/ NADPH (%) Rat of COc1cc(F)cc(N2[C@H](C)CN(S(=O)(=O)N3CCCN(CC4CCCCC4)CCCN(S(=O)(=O)c4ccc(N(C)C)cc4)C[C@H](C)C3)C[C@H]2C)c1 .
# output 83.1

# input Give the measured Liver Microsome Stability-% Left after 30 min w/ NADPH (%) Rat of C[C@H]1CN(S(=O)(=O)c2ccc(N(C)C)cc2)CCCN(CC2CCCCC2)CCCN(S(=O)(=O)N2CCN(c3ccccc3C#N)CC2)C1 .
# output 18.3

# input Give the measured Liver Microsome Stability-% Left after 30 min w/ NADPH (%) Rat of COc1cc(F)ccc1N1CCN(S(=O)(=O)N2CCCN([C@@H](C)C3CCCCC3)CCCN(S(=O)(=O)c3ccc(N(C)C)cc3)C[C@H](C)C2)CC1 .
# output 78.7

# input Give the measured Liver Microsome Stability-% Left after 30 min w/ NADPH (%) Rat of CN(C)c1ccc(S(=O)(=O)N2CCCN(CC3CCCCC3)CCCN(S(=O)(=O)N3CCCCC3)CC2)cc1 .
# output 0.1

# input Give the measured Liver Microsome Stability-% Left after 30 min w/ NADPH (%) Rat of C[C@H]1CN(S(=O)(=O)c2ccc3oncc3c2)CCCN(CC2CCCCC2)CCCN(S(=O)(=O)N2CCc3cc(Cl)ccc3C2)C1 .
# output 1.97
